# EXPERIMENT: Concentration of TAK-242 in plasma and brain tissue after i.p. injection (LC-MS/MS)
# Format: in vivo, mice (C57BL/6J)
# EXPERIMENTAL_CONDITIONS: male, C57BL/6J, mouse, ischemic (ipsilateral) hemisphere, ip; 24 hrs after i.p. injection, 3 mg/kg body weight, brain tissue; read-out: concentration of TAK-242 in ischemic (ipsilateral) hemisphere
MEASURE_NAME: concentration at 24 h (ng/mL)
Respond with the bare value in ng/mL.

// lookup concentration at 24 h for `CCOC(=O)C1=CCCC[C@H]1S(=O)(=O)Nc1ccc(F)cc1Cl`
25

----------
# EXPERIMENT: Concentration of TAK-242 in plasma and brain tissue after i.p. injection (LC-MS/MS)
# Type: in vivo, mice (C57BL/6J)
# EXPERIMENTAL_CONDITIONS: male, C57BL/6J, mouse, hemisphere contralateral to ischemia, ip; 8 hrs after i.p. injection, 3 mg/kg body weight, brain tissue; read-out: concentration of TAK-242 in hemisphere contralateral to ischemia
MEASURE_NAME: concentration at 8 h (ng/mL)
Respond with the bare value in ng/mL.

// lookup concentration at 8 h for CCOC(=O)C1=CCCC[C@H]1S(=O)(=O)Nc1ccc(F)cc1Cl [TAK-242]
15.1

----------
# EXPERIMENT: Concentration of TAK-242 in plasma and brain tissue after i.p. injection (LC-MS/MS)
# Type: in vivo, mice (C57BL/6J)
# EXPERIMENTAL_CONDITIONS: male, C57BL/6J, mouse, plasma, ip; 3 hrs after i.p. injection, 3 mg/kg body weight, mice with tMCAO; read-out: concentration of TAK-242 in plasma
MEASURE_NAME: concentration at 3 h (ng/mL)
Respond with the bare value in ng/mL.

// lookup concentration at 3 h for `CCOC(=O)C1=CCCC[C@H]1S(=O)(=O)Nc1ccc(F)cc1Cl`
52

----------
# EXPERIMENT: Concentration of TAK-242 in plasma and brain tissue after i.p. injection (LC-MS/MS)
# Type: in vivo, mice (C57BL/6J)
# EXPERIMENTAL_CONDITIONS: male, C57BL/6J, mouse, ischemic (ipsilateral) hemisphere, ip; 8 hrs after i.p. injection, 3 mg/kg body weight, brain tissue; read-out: concentration of TAK-242 in ischemic (ipsilateral) hemisphere
MEASURE_NAME: concentration at 8 h (µg/mL)
Respond with the bare value in µg/mL.

// lookup concentration at 8 h for `CCOC(=O)C1=CCCC[C@H]1S(=O)(=O)Nc1ccc(F)cc1Cl`
0.0264

----------
# EXPERIMENT: Concentration of TAK-242 in plasma and brain tissue after i.p. injection (LC-MS/MS)
# Type: in vivo, mice (C57BL/6J)
# EXPERIMENTAL_CONDITIONS: male, C57BL/6J, mouse, plasma, ip; 8 hrs after i.p. injection, 3 mg/kg body weight, mice with tMCAO; read-out: concentration of TAK-242 in plasma
MEASURE_NAME: concentration at 8 h

// lookup concentration at 8 h for CCOC(=O)C1=CCCC[C@H]1S(=O)(=O)Nc1ccc(F)cc1Cl [TAK-242]
54.1 ng/mL

----------
# EXPERIMENT: Concentration of TAK-242 in plasma and brain tissue after i.p. injection (LC-MS/MS)
# Type: in vivo, mice (C57BL/6J)
# EXPERIMENTAL_CONDITIONS: male, C57BL/6J, mouse, hemisphere contralateral to ischemia, ip; 24 hrs after i.p. injection, 3 mg/kg body weight, brain tissue; read-out: concentration of TAK-242 in hemisphere contralateral to ischemia
MEASURE_NAME: concentration at 24 h (ng/mL)
Respond with the bare value in ng/mL.

// lookup concentration at 24 h for `CCOC(=O)C1=CCCC[C@H]1S(=O)(=O)Nc1ccc(F)cc1Cl`
17.5
